Listed next: entries and their corresponding pIC50.
system under test: CLC-0 E166G mutant (Torpedo marmorata, UniProt P21564, C212S/E166G)
Type: cell-based
condition context: read-out: Apparent affinity (K1/2); −120 mV
Scale for pIC50: -log10 of concentration given in mol/L; no unit attached.

molecule: CCCCCCCC(=O)O [octanoate]
observed property: pIC50
result number: 4.09

# input for lookup
Input: Recorded pIC50 of O=C(O)COc1ccc(Cl)cc1 [CPA, p-chlorophenoxy acetate] , please.
Output: 3.74

---

system under test: CLC-0 E166C/K519E mutant (E127/K519E) (Torpedo marmorata, UniProt P21564, C212S/E166C/K519E)
Format: cell-based
condition context: read-out: Apparent affinity (K1/2); −60 mV
observed property: pIC50
Scale for pIC50: -log10 of concentration given in mol/L; no unit attached.

Input: Recorded pIC50 of O=C(O)COc1ccc(Cl)cc1 [CPA, p-chlorophenoxy acetate] , please.
Output: 3.29

---

system under test: CLC-0 E166I mutant (Torpedo marmorata, UniProt P21564, C212S/E166I)
Format: cell-based
condition context: read-out: Apparent affinity (K1/2); −100 mV
Listed next: entries and their corresponding pIC50.
Scale for pIC50: -log10 of concentration given in mol/L; no unit attached.

compound: CCCCCCCC(=O)O [octanoate]
system under test: CLC-0 E166I mutant (Torpedo marmorata, UniProt P21564, C212S/E166I)
pIC50: 4.35

# input for lookup
Input: Checklist item: pIC50 tested on CLC-0 E166I mutant (Torpedo marmorata, UniProt P21564, C212S/E166I), entry O=C(O)COc1ccc(Cl)cc1 [CPA, p-chlorophenoxy acetate] , value?
Output: 3.66

---

system under test: wild-type CLC-0 (E166, C212S background) (Torpedo marmorata, UniProt P21564, C212S)
Sequence (P21564 1-805 C212S): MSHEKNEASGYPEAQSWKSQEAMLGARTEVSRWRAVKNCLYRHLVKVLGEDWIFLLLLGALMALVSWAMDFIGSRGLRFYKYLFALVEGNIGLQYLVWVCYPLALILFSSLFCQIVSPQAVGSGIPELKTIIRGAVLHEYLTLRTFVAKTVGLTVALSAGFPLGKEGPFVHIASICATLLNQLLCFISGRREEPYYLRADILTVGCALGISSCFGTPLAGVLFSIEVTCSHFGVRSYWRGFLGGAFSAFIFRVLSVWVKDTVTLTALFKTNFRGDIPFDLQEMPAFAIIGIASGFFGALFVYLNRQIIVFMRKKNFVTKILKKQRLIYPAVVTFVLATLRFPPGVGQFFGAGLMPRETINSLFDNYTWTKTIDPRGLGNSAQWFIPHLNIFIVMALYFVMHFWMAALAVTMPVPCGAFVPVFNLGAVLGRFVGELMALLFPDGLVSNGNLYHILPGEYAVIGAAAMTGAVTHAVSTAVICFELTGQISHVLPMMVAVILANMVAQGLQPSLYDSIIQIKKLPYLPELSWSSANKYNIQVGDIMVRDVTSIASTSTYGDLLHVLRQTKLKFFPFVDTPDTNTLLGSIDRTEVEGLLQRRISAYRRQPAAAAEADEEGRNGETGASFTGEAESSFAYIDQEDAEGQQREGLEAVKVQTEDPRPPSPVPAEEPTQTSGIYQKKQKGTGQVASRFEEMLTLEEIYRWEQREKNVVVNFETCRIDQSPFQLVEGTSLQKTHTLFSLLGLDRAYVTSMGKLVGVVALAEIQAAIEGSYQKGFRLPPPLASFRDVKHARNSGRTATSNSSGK
Assay type: cell-based
condition context: read-out: Apparent affinity (K1/2); −120 mV
Listed next: entries and their corresponding IC50.

compound: CCCCCCCC(=O)O [octanoate]
result: 300 µM

Input: Checklist item: IC50 tested on wild-type CLC-0 (E166, C212S background) (Torpedo marmorata, UniProt P21564, C212S), entry O=C(O)COc1ccc(Cl)cc1 [CPA, p-chlorophenoxy acetate] , value?
Output: 1570 µM

---

system under test: CLC-0 E166Y mutant (Torpedo marmorata, UniProt P21564, C212S/E166Y)
Assay type: cell-based
condition context: read-out: Apparent affinity (K1/2); −80 mV
Listed next: entries and their corresponding pIC50.
Scale for pIC50: -log10 of concentration given in mol/L; no unit attached.

Input: Recorded pIC50 of O=C(O)COc1ccc(Cl)cc1 [CPA, p-chlorophenoxy acetate] , please.
Output: 2.86

Input: Recorded pIC50 of CCCCCCCC(=O)O [octanoate] , please.
Output: 1.78

---

Listed next: entries and their corresponding IC50.
system under test: CLC-0 E166L mutant (Torpedo marmorata, UniProt P21564, C212S/E166L)
Format: cell-based
condition context: read-out: Apparent affinity (K1/2); −160 mV
Please answer using a numeric value trailed by its unit.

molecule: CCCCCCCC(=O)O [octanoate]
IC50: 11 µM

Input: Recorded IC50 of O=C(O)COc1ccc(Cl)cc1 [CPA, p-chlorophenoxy acetate] , please.
Output: 180 µM

---

system under test: CLC-0 E166G mutant (Torpedo marmorata, UniProt P21564, C212S/E166G)
Sequence (P21564 1-805 E166G/C212S): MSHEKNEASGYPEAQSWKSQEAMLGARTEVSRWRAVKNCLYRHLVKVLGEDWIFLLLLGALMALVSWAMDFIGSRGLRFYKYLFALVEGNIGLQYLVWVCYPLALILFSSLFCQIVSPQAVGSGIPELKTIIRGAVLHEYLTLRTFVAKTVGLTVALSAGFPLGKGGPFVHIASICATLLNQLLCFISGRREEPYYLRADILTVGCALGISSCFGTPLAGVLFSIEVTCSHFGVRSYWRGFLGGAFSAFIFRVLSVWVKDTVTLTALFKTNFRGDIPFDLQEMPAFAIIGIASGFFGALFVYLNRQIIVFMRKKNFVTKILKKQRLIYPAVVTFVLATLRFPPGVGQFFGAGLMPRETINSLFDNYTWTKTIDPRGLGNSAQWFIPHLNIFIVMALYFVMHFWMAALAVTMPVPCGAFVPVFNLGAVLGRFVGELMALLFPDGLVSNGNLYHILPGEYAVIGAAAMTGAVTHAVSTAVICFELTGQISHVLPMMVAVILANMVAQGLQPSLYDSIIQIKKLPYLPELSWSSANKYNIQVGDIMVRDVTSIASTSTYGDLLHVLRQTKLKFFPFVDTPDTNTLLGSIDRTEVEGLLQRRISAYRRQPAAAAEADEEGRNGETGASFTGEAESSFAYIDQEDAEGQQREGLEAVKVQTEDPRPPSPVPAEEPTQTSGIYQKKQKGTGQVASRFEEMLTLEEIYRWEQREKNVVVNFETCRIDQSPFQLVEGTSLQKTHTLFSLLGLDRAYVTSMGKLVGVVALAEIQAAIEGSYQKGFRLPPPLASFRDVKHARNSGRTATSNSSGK
Type: cell-based
condition context: read-out: Apparent affinity (K1/2); −140 mV
observed property: IC50 (µM)
Express the result in µM but write the number alone.

Input: Recorded IC50 of O=C(O)COc1ccc(Cl)cc1 [CPA, p-chlorophenoxy acetate] , please.
Output: 240

Input: Recorded IC50 of CCCCCCCC(=O)O [octanoate] , please.
Output: 115

---

system under test: CLC-0 E166C mutant (E127/K519) (Torpedo marmorata, UniProt P21564, C212S/E166C)
Assay type: cell-based
condition context: read-out: Apparent affinity (K1/2); −160 mV
Listed next: entries and their corresponding IC50.
Express the result in µM but write the number alone.

compound: O=C(O)COc1ccc(Cl)cc1 [CPA, p-chlorophenoxy acetate]
quantity unit: µM
result number: 26

# input for lookup
Input: Recorded IC50 of CCCCCCCC(=O)O [octanoate] , please.
Output: 2

---

system under test: CLC-0 E166C/E127Q mutant (E127Q/K519) (Torpedo marmorata, UniProt P21564, C212S/E127Q/E166C)
Sequence (P21564 1-805 E127Q/E166C/C212S): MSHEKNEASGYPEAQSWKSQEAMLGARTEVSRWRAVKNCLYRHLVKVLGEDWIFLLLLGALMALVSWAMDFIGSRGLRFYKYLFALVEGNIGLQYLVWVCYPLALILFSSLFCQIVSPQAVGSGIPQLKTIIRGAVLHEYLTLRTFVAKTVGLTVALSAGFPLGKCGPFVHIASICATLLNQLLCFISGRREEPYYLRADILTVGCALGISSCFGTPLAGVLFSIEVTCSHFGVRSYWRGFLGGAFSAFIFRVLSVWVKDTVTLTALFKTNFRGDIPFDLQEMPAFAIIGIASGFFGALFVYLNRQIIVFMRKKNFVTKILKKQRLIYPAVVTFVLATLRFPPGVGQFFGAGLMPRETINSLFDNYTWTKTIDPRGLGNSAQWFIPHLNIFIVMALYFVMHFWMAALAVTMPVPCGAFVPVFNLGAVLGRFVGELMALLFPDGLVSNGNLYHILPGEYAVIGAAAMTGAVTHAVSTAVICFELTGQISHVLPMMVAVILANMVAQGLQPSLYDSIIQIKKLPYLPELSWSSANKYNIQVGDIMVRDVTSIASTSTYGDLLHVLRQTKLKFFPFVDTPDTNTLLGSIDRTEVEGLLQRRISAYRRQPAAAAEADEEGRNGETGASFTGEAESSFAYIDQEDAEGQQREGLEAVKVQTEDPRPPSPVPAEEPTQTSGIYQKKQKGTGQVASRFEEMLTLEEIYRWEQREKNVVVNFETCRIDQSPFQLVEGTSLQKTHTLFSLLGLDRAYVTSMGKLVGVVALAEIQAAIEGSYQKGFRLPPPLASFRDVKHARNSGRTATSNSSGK
Type: cell-based
condition context: read-out: Apparent affinity (K1/2); −160 mV
observed property: IC50 (µM)
Express the result in µM but write the number alone.

Input: Recorded IC50 of O=C(O)COc1ccc(Cl)cc1 [CPA, p-chlorophenoxy acetate] , please.
Output: 15
